The reported numbers originate from ChEMBL document CHEMBL1128358.

- MEASUREMENT_TARGET: GABA-A receptor; anion channel
- ASSAY_DETAILS: Binding affinity against Diazepam sensitive (DS) Gamma-aminobutyric acid A receptor

{"SMILES_DATA": "CC(=O)c1ncn2c1CN(C)C(=O)c1cc(Cl)ccc1-2", "VALUE_RELATION_SIGN": ">", "IC50 / nM": 1000}
{"SMILES_DATA": "CCOC(=O)c1ncn2c1CN(C)C(=O)c1cc(OCC)ccc1-2", "VALUE_RELATION_SIGN": "=", "IC50 / nM": 7.07}
{"SMILES_DATA": "COCc1ncn2c1CN(C)C(=O)c1cc(Cl)ccc1-2", "VALUE_RELATION_SIGN": "=", "IC50 / nM": 514}
{"SMILES_DATA": "CCOC(=O)c1ncn2c1CN(C)C(=O)c1cc(OC)ccc1-2", "VALUE_RELATION_SIGN": "=", "IC50 / nM": 2.47}
{"SMILES_DATA": "CCOCc1ncn2c1CN(C)C(=O)c1cc(Cl)ccc1-2", "VALUE_RELATION_SIGN": ">", "IC50 / nM": 500}
{"SMILES_DATA": "CCc1ncn2c1CN(C)C(=O)c1cc(Cl)ccc1-2", "VALUE_RELATION_SIGN": ">", "IC50 / nM": 500}

====

- MEASUREMENT_TARGET: GABA-A receptor; anion channel
- ASSAY_DETAILS: Binding affinity against Diazepam insensitive (DI) Gamma-aminobutyric acid A receptor
Measured Ki accompanies every entry in the list below.
ENDPOINT_LABEL: Ki (µM)

{"COMPOUND": "CCc1ncn2c1CN(C)C(=O)c1cc(Cl)ccc1-2", "ENDPOINT_LABEL": "Ki", "VALUE_RELATION_SIGN": ">", "OBSERVED": 1}
{"COMPOUND": "CCOCc1ncn2c1CN(C)C(=O)c1cc(Cl)ccc1-2", "ENDPOINT_LABEL": "Ki", "VALUE_RELATION_SIGN": ">", "OBSERVED": 1}
{"COMPOUND": "COc1ccc(-n2nc3c4ccc(OC)cc4[nH]cc-3c2=O)cc1", "ENDPOINT_LABEL": "Ki", "VALUE_RELATION_SIGN": "=", "OBSERVED": 0.01}
{"COMPOUND": "CCOC(=O)c1ncn2c1CN(C)C(=O)c1cc(OCC)ccc1-2", "ENDPOINT_LABEL": "Ki", "VALUE_RELATION_SIGN": "=", "OBSERVED": 0.0409}
{"COMPOUND": "CCN(CC)Cc1ncn2c1CN(C)C(=O)c1cc(Cl)ccc1-2", "ENDPOINT_LABEL": "Ki", "VALUE_RELATION_SIGN": ">", "OBSERVED": 1}
{"COMPOUND": "COc1ccc(-n2nc3c4cc(Cl)ccc4[nH]cc-3c2=O)cc1", "ENDPOINT_LABEL": "Ki", "VALUE_RELATION_SIGN": "=", "OBSERVED": 0.0019}
{"COMPOUND": "O=C1C2C=Nc3ccccc3C2=NN1c1ccccc1 (stereo not drawn) [CGS-8216]", "ENDPOINT_LABEL": "Ki", "VALUE_RELATION_SIGN": "=", "OBSERVED": 0.046}
{"COMPOUND": "CN1Cc2c(CCl)ncn2-c2ccc(Cl)cc2C1=O", "ENDPOINT_LABEL": "Ki", "VALUE_RELATION_SIGN": ">", "OBSERVED": 1}
